Molecular target: P2X7 receptor (Homo sapiens (Human), UniProt Q99572)
Sequence (Q99572 whole entry): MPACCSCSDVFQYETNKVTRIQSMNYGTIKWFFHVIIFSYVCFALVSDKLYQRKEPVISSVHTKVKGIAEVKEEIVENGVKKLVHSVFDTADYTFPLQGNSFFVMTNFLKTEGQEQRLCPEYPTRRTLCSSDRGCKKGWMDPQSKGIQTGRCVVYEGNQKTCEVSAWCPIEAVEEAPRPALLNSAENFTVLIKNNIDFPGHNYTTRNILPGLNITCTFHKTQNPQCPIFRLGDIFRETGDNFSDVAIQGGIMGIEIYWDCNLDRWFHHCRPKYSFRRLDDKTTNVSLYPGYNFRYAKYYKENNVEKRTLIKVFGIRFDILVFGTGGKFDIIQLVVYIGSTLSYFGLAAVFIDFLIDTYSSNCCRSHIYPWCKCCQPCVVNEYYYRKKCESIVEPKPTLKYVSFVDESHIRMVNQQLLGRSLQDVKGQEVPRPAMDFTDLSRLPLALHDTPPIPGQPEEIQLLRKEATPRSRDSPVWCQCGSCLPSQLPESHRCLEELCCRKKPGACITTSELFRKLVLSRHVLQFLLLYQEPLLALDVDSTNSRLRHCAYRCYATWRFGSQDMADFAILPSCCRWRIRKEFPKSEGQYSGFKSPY
Assay: P2X7 FLIPR assay: antagonism of BzATP response in 293 HEK cells stably expressing P2X7 receptor
Settings: FLIPR fluorescence (Fluo-4), agonist BzATP, 293 HEK cells stably transfected with P2X7 receptor
Kindly state IC50 for each of the entries shown.
# number then unit; no other words

Example results:
molecule	IC50
Cn1cc(C(CNC(=O)c2cc(F)cc(Cl)c2Cl)N2CCC(F)(F)CC2)cn1 (single isomer, unassigned; (+)) [(+)2,3-dichloro-N-[2-(4,4-difluoro-1-piperidyl)-2-(1-methylp]	34 nM
O=C(NCC(c1ccc(Cl)cc1)N1CCCC1)c1cccc(Cl)c1Cl (stereo not drawn)	1800 nM

Qu. Provide measured IC50 value, entry: COc1cccc(C(=O)NCC(c2cnc(C(F)(F)F)nc2)N2CCC(F)(F)CC2)c1Cl (single isomer, unassigned; (-)) [(−)2-chloro-N-[2-(4,4-difluoro-1-piperidyl)-2-[2-(trifluorom]
Ans. 4.8 nM

###

Molecular target: P2X7 receptor (Homo sapiens (Human), UniProt Q99572)
Experiment: P2X7 FLIPR assay: antagonism of BzATP response in 293 HEK cells stably expressing P2X7 receptor
Conditions: FLIPR fluorescence (Fluo-4), agonist BzATP, 293 HEK cells stably transfected with P2X7 receptor
pIC50: −log10 of the molar value.
Label scheme for pIC50: lower than 8 is label 0, 8 and above is label 1.

Reference set, count: 2
compound	labelValue
O=C(NCC(c1ccc(C(F)F)nc1)N1CCC(F)(F)CC1)c1cccc(Cl)c1Cl (single isomer, unassigned; (-)) [(−)2,3-dichloro-N-[2-[6-(difluoromethyl)-3-pyridyl]-2-(4,4-d]	label 1
Cc1ncc(C(CNC(=O)c2cccc(Cl)c2Cl)N2CCC(F)(F)CC2)cn1 (centres unmarked) [2,3-dichloro-N-[2-(4,4-difluoro-1-piperidyl)-2-(2-methylpyri]	label 1

Next:
Qu. API: above_or_equal(metric=pIC50, cutoff=8) for item COc1ccccc1C(=O)NCC(c1ccc(C(F)(F)F)nc1)N1CCOCC1 (single isomer, unassigned; (-)) [(−)2-methoxy-N-[2-morpholino-2-[6-(trifluoromethyl)-3-pyridy]
Ans. label 0

###

Target: P2X7 receptor (Homo sapiens (Human))
Assay: P2X7 FLIPR assay: antagonism of BzATP response in 293 HEK cells stably expressing P2X7 receptor
Assay type: cell-based
Conditions: FLIPR fluorescence (Fluo-4), agonist BzATP, 293 HEK cells stably transfected with P2X7 receptor
attributeMeasured: IC50 (nM)
Numbers only, in nM.

Example results:
compound	IC50 (nM)
O=C(NCC(c1cnc(C(F)(F)F)nc1)N1CCC(F)CC1)c1ccccc1Cl (single isomer, unassigned; (-)) [(−)2-chloro-N-[2-(4-fluoro-1-piperidyl)-2-[2-(trifluoromethy]	13
O=C(NCC(c1cnc(C(F)(F)F)nc1)N1CCC(F)CC1)c1cccc(Cl)c1Cl (single isomer, unassigned; (-)) [(−)2,3-dichloro-N-[2-(4-fluoro-1-piperidyl)-2-[2-(trifluorom]	4.7
Cc1ncc(C(CNC(=O)c2ccccc2Cl)N2CCCC(F)(F)C2)cn1 (single isomer, unassigned; (+)) [(+)2-chloro-N-[2-(3,3-difluoro-1-piperidyl)-2-(2-methylpyrim]	85
Cn1cc(C(CNC(=O)c2c(Cl)cccc2Cl)N2CCC(F)(F)CC2)cn1 (single isomer, unassigned; (+)) [(+)2,6-dichloro-N-[2-(4,4-difluoro-1-piperidyl)-2-(1-methylp]	56
COc1ccc(C(CNC(=O)c2cccc(C)c2C)N2CCCCC2)cc1 (stereo not drawn)	420

Qu. Provide measured IC50 value, entry: Cc1cccc(C(=O)NCC(c2cccnc2)N2CCOCC2)c1C (stereo not drawn)
Ans. 2700
